- Tested on: HEL
- experiment.summary: Cytotoxicity against HEL cells assessed as inhibition of cell growth irradiated with 450 nm light and incubated in presence of N-tert-butyl-3-[[5-methyl-2-(4-piperazin-1-ylanilino)pyrimidin-4-yl]amino]benzenesulfonamide
- Format: functional, cell-based
- details: Homo sapiens, light or radiation study

{"columns": ["compound", "result.units", "IC50"],
 "data": [
  ["O=C(Nc1c[nH]nc1-c1nc2ccc(CN3CCOCC3)cc2[nH]1)NC1CC1 [AT-9283]", "nM", 2180]
]}

###

- System: BaF3
- experiment.summary: Cytotoxicity against mouse BaF3 cells harboring EPOR JAK2 V617F mutant measured after 24 hrs by XTT assay
- Assay type: functional, cell-based
- details: BaF3, 24 h

{"columns": ["item.smiles", "IC50"],
 "data": [
  ["Cc1cnc(Nc2ccc(N3CCN(C)CC3)cc2)nc1Nc1cccc(S(=O)(=O)NC(C)(C)C)c1", "170 nM"]
]}
